Record form. Attribute: pKd. Fill in for each entry.
Biological target: T1, cynomolgus complement C3b protein (cynomolgus monkey (Macaca fascicularis))
T1 construct: also called cyno C3b; cynoC3b
Experiment: SPR (Biacore), C3b captured by anti-C3d antibody, Fab as analyte
The quantity pKd is defined as the negative base-10 logarithm of the molar concentration.

**Query** Look at this binder and give its reported pKd. MOR09397 Fab (Fab, V domains shown, also called Fab 9397) VH: QVQLVESGGGLVQPGGSLRLSCAASGFTFSSYWMTWVRQAPGKGLEWVSSIKIKPDGYAASVKGRFTISRDNSKNTLYLQMNSLRAEDTAVYYCARLFYQYFARMDYWGQGTLVTVSS VL: DIQMTQSPSSLSASVGDRVTITCRASQDISNYLNWYQQKPGKAPKLLIYAASNLQSGVPSRFSGSGSGTDFTLTISSLQPEDFATYYCQQHDTFRPTFGQGTKVEIKR
**Result** 10.05

**Query** Look at this binder and give its reported pKd. MOR09423 Fab (Fab, V domains shown, also called Fab 9423) VH: QVQLVQSGAEVKKPGASVKVSCKASGYTFTGYYINWVRQAPGQGLEWMGIISPNQGTTGYAQKFQGRVTMTRDTSISTAYMELSSLRSEDTAVYYCARGNYDHLDYWGQGTLVTVSS VL: DIQMTQSPSSLSASVGDRVTITCRASQGISNYLNWYQQKPGKAPKLLIYDASTLQSGVPSRFSGSGSGTDFTLTISSLQPEDFATYYCQQDWHTLPVTFGQGTKVEIKR
**Result** 9.31

**Query** Look at this binder and give its reported pKd. MOR09124 Fab (Fab, V domains shown, HCDR2-matured derivative of parental MOR08305) VH: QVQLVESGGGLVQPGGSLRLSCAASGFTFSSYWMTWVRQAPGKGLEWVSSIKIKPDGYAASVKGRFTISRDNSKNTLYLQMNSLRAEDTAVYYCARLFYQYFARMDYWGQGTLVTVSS VL: DIQMTQSPSSLSASVGDRVTITCRASQDISNYLNWYQQKPGKAPKLLIYAASNLQSGVPSRFSGSGSGTDFTLTISSLQPEDFATYYCQQYDSYSPTFGQGTKVEIKR
**Result** 10.48

**Query** Look at this binder and give its reported pKd. MOR09398 Fab (Fab, V domains shown, also called Fab 9398) VH: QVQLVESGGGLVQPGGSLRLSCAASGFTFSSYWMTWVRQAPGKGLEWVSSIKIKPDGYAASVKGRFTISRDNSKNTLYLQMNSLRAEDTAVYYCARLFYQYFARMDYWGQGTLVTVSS VL: DIQMTQSPSSLSASVGDRVTITCRASQDISNYLNWYQQKPGKAPKLLIYAASNLQSGVPSRFSGSGSGTDFTLTISSLQPEDFATYYCQQWDSFSPTFGQGTKVEIKR
**Result** 10.04

**Query** Look at this binder and give its reported pKd. MOR09373 Fab (Fab, V domains shown, also called Fab 9373) VH: QVQLVQSGAEVKKPGASVKVSCKASGYTFTSYSMHWVRQAPGQGLEWMGLINPYNGNTHYAQKFQGRVTMTRDTSISTAYMELSSLRSEDTAVYYCARMLRFDVWGQGTLVTVSS VL: DIALTQPASVSGSPGQSITISCTGTSSDGGGYNYVSWYQQHPGKAPKLMIYGVSNRPSGVSNRFSGSKSGNTASLTISGLQAEDEADYYCQTYTRYSDSPVFGGGTKLTVLG
**Result** 11.05

**Query** Look at this binder and give its reported pKd. MOR09136 Fab (Fab, V domains shown, also called Fab 9136) VH: QVQLVQSGAEVKKPGSSVKVSCKASGGTFSSYTFSWVRQAPGQGLEWMGNILPIFGDANYAQKFQGRVTITADESTSTAYMELSSLRSEDTAVYYCARNKGAFYYMSTYPSLDVWGQGTLVTVSS VL: DIQMTQSPSSLSASVGDRVTITCRASQNINYYLNWYQQKPGKAPKLLIYDAFSLQSGVPSRFSGSGSGTDFTLTISSLQPEDFATYYCQQSWSVPPFTFGQGTKVEIKR
**Result** 11.30

**Query** Look at this binder and give its reported pKd. MOR09141 Fab (Fab, V domains shown, also called Fab 9141) VH: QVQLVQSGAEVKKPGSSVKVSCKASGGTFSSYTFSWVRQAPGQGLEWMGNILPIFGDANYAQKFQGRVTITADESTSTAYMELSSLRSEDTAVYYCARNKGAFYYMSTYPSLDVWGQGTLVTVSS VL: DIQMTQSPSSLSASVGDRVTITCRASQNINYYLNWYQQKPGKAPKLLIYDAFSLQSGVPSRFSGSGSGTDFTLTISSLQPEDFATYYCQQSIAVPPFTFGQGTKVEIKR
**Result** 11.40
